All figures here come from PubChem BioAssay AID2060896.

Tested on: 941728-121-R-J1-PDC complex spheroid viability
experiment: Anticancer human tumor 941728-121-R-J1-PDC patient-derived lung adenocarcinoma cell line growth inhibition [RAS]
condition.details: second compound 0.0316 µM; first compound 0.03 µM; active compounds read low
test.readout: viability, T/C (%)
Number in %, nothing else.

The cases that follow already have their viability, T/C on record.
compound: CCc1c2c(nc3ccc(O)cc13)-c1cc3c(c(=O)n1C2)COC(=O)[C@]3(O)CC + C=CC(=O)N1CCN(c2nc(OCC3CCCN3C)nc3c(F)c(-c4nc(N)cc(C)c4C(F)(F)F)c(Cl)cc23)C(C)C1
test.readout: viability, T/C
value.units: %
data.value: 15.1

compound: CC1(C)CCC(Nc2ncc(C(F)(F)F)c(-c3c[nH]c4c(P(C)(C)=O)c(C#N)ccc34)n2)CN1 (centres undefined) + C=CC(=O)N1CCN(c2nc(OCC3CCCN3C)nc3c(F)c(-c4nc(N)cc(C)c4C(F)(F)F)c(Cl)cc23)C(C)C1
test.readout: viability, T/C
value.units: %
data.value: 17.6

compound: CCc1c2c(nc3ccc(O)cc13)-c1cc3c(c(=O)n1C2)COC(=O)[C@]3(O)CC + C#Cc1c(F)ccc2cc(O)cc(-c3ncc4c(N5CC6CCC(C5)N6)nc(OCC56CCCN5CC(F)C6)nc4c3F)c12
test.readout: viability, T/C
value.units: %
data.value: 49.8

# next compound below
Which value of viability, T/C has been reported for CC1(C)CCC(Nc2ncc(C(F)(F)F)c(-c3c[nH]c4c(P(C)(C)=O)c(C#N)ccc34)n2)CN1 (centres undefined) + C#Cc1c(F)ccc2cc(O)cc(-c3ncc4c(N5CC6CCC(C5)N6)nc(OCC56CCCN5CC(F)C6)nc4c3F)c12 in the records?
48

###

Tested on: 941728-121-R-J1-PDC complex spheroid viability
experiment: Anticancer human tumor 941728-121-R-J1-PDC cell line growth inhibition [RAS];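 further: spheroids exposed to compounds for 7 days before readout; 100% = DMSO vehicle control viability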
condition.details: second compound 0.03 µM; first compound 0.0316 µM; active compounds read low
test.readout: viability, T/C

molecule: CC1(O)CCCC1n1c(=O)c(C(F)F)cc2cnc(NC3CCN(S(C)(=O)=O)CC3)nc21 (configuration not stated) + CCn1c(-c2cccnc2C(C)OC)c2c3cc(ccc31)N1CCOC(CC(NC(=O)C(C(C)C)N(C)C(=O)C3(F)CCN(C(=O)C#CC(C)(C)N(C)C)CC3)C(=O)N3CCCC(N3)C(=O)OCC(C)(C)C2)C1
data.value: 23.1%

Which value of viability, T/C has been reported for CCC(CC)c1cc(NC2CCC(N)C2)n2nccc2n1 (configuration not stated) + CCn1c(-c2cc(N3CCN(C)CC3)cnc2C(C)OC)c2c3cc(ccc31)-c1csc(n1)CC(NC(=O)C1CC1C)C(=O)N1CCCC(N1)C(=O)OCC(C)(C)C2 in the records?
14.8%

###

Tested on: 941728-121-R-J1-PDC complex spheroid viability
experiment: Anticancer human tumor 941728-121-R-J1-PDC cell line growth inhibition [RAS];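 further: spheroids exposed to compounds for 7 days before readout; 100% = DMSO vehicle control viability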
condition.details: second compound 0.3 µM; first compound 0.00316 µM; active compounds read low
Source text: RAS pathway inhibitors in Combinations in Complex Spheroids A high-throughput screen of multi-cell type tumor spheroids was designed to identify active combinations of RAS pathway inhibitors and targeted small molecules. Complex spheroids include a stromal component modeled by human endothelial cells (HUVEC) and fibroblasts modeled by human mesenchymal stem cells (MSCs). […] Compounds. […] If the clinical Cmax for an agent had not been determined, the highest concentration tested was 10 microM. […]
test.readout: viability, T/C (%)
Number in %, nothing else.

The cases that follow already have their viability, T/C on record.
compound: CCN1CCN(Cc2ccc(Nc3ncc(F)c(-c4cc(F)c5nc(C)n(C(C)C)c5c4)n3)nc2)CC1 + CCn1c(-c2cc(N3CCN(C)CC3)cnc2C(C)OC)c2c3cc(ccc31)-c1csc(n1)CC(NC(=O)C1CC1C)C(=O)N1CCCC(N1)C(=O)OCC(C)(C)C2
data.value: 11.3

compound: C=CC(=O)N1CCN(c2nc(OCC3CCCN3C)nc3c(F)c(-c4nc(N)cc(C)c4C(F)(F)F)c(Cl)cc23)C(C)C1 (centres undefined) + CCn1c(-c2cccnc2C(C)OC)c2c3cc(ccc31)N1CCOC(CC(NC(=O)C(C(C)C)N(C)C(=O)C3(F)CCN(C(=O)C#CC(C)(C)N(C)C)CC3)C(=O)N3CCCC(N3)C(=O)OCC(C)(C)C2)C1
data.value: 22.7

compound: C=CC(=O)Nc1cc(Nc2nccc(-c3cn(C)c4ccccc34)n2)c(OC)cc1N(C)CCN(C)C + CCn1c(-c2cccnc2C(C)OC)c2c3cc(ccc31)N1CCOC(CC(NC(=O)C(C(C)C)N(C)C(=O)C3(F)CCN(C(=O)C#CC(C)(C)N(C)C)CC3)C(=O)N3CCCC(N3)C(=O)OCC(C)(C)C2)C1
data.value: 22.5

# next compound below
Which value of viability, T/C has been reported for CCN1CCN(Cc2ccc(Nc3ncc(F)c(-c4cc(F)c5nc(C)n(C(C)C)c5c4)n3)nc2)CC1 + CCn1c(-c2cccnc2C(C)OC)c2c3cc(ccc31)N1CCOC(CC(NC(=O)C(C(C)C)N(C)C(=O)C3(F)CCN(C(=O)C#CC(C)(C)N(C)C)CC3)C(=O)N3CCCC(N3)C(=O)OCC(C)(C)C2)C1 in the records?
21.2
